assay: Cytotoxicity, Cell Titer-Glo cell viability; type: cell-based, mouse; conditions: primary mouse spleen cells; mouse spleen cells, 16-18 hours
readout: IC50 (µM)
One number for each entry, in µM.

Looking up CC(C)=CCC/C(C)=C/[C@H]1CC(C)=C[C@@]2(C=C(CO)[C@@H]3CC(=O)C(C)=C[C@@H]3O2)O1 , I found its IC50 recorded as 63

====

Target: LXRα (Homo sapiens, UniProt Q13133)
Sequence (Q13133 209-447 limits assumed): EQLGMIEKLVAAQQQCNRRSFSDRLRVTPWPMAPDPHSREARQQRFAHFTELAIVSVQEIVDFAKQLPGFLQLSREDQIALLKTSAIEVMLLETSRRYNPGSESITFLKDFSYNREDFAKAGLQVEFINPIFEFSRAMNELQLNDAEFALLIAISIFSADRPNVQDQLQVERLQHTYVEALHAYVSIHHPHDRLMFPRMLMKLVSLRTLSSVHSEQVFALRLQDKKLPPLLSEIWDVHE
Experiment: LXR antagonistic activity, GAL-hLXR luciferase transfection assay in CV-1 cells
Settings: antagonism, together with agonist TO901317 (2.5 μM), 24 hours
readout: IC50 (nM)
One number for each entry, in nM.

Looking up CC(C)=CCC/C(C)=C/[C@H]1CC(C)=C[C@@]2(C=C(CO)[C@@H]3CC(=O)C(C)=C[C@@H]3O2)O1 [Compound 1] , I found its IC50 recorded as 18.7
